// provenance: patent US7932283B2

# testMethodNotes: logP by HPLC on reversed-phase column (C 18), EEC Directive 79/B31 Annex V.A8, methods A and B
# Format: physicochemical
# measurementSetup: reversed-phase HPLC column (C 18), HPLC reversed-phase C 18, method A: 43° C., 0.1% aqueous phosphoric acid, acetonitrile, linear gradient 10% to 90% acetonitrile
# Method: Calibration was carried out using unbranched alkan-2-ones (having 3 to 16 carbon atoms) with known logP values (determination of the logP values by the retention times using linear interpolation between two successive alkanones).
testReadout: chromatographic logP

- compound: "Cc1nc(C(=O)N(C2CC2)S(=O)(=O)c2ccc(O)cc2O)cs1 [Compound 71]"
  chromatographic logP: 3.03
- compound: "O=C(c1cc(Br)c(Br)s1)N(C1CC1)S(=O)(=O)c1ccccc1O [Compound 15]"
  chromatographic logP: 4.07
- compound: "Cc1ccsc1C(=O)N(C1CC1)S(=O)(=O)c1ccccc1O [Compound 14]"
  chromatographic logP: 3.12
- compound: "Cc1nn(C)c(F)c1C(=O)N(C1CC1)S(=O)(=O)c1ccccc1-c1ccccc1 [Compound 206]"
  chromatographic logP: 2.96
- compound: "Cc1nn(C)c(F)c1C(=O)N(C1CC1)S(=O)(=O)c1ccc(Oc2ccccc2)cc1 [Compound 187]"
  chromatographic logP: 3.42

====

# testMethodNotes: logP by HPLC on reversed-phase column (C 18), EEC Directive 79/B31 Annex V.A8, methods A and B
# Type: physicochemical
# measurementSetup: reversed-phase HPLC column (C 18), LogP method B: HPLC reversed-phase C 18, 40° C., 0.1% aqueous formic acid / acetonitrile, linear gradient 10% to 90% acetonitrile
testReadout: chromatographic logP

a. COc1nn(C)cc1C(=O)N(C1CC1)S(=O)(=O)c1ccc(Oc2ccc(C(F)(F)F)cc2)cc1Br
b. Cc1oncc1C(=O)N(C1CC1)S(=O)(=O)c1ccc(O)c(O)c1O
Request: Of the pair a and b , name the member with the lesser recorded chromatographic logP. Returns: label corresponding to the selected item.
Result: b
(b: 2.6, a: 3.9)

I. CCOc1nn(C)cc1C(=O)N(C1CC1)S(=O)(=O)c1ccc(Oc2ccc(O)cc2Cl)cc1O
II. Cc1oncc1C(=O)N(C1CC1)S(=O)(=O)c1cccc(O)c1O
Request: Between the entries labeled I and II , whose measured chromatographic logP is lower? Indicate your choice by writing its label.
Result: II
(II: 2.2, I: 4.3)

====

# testMethodNotes: logP by HPLC on reversed-phase column (C 18), EEC Directive 79/B31 Annex V.A8, methods A and B
# Type: physicochemical
# measurementSetup: reversed-phase HPLC column (C 18), LogP method A: HPLC reversed-phase C 18, 43° C., 0.1% aqueous phosphoric acid / acetonitrile, linear gradient 10% to 90% acetonitrile
testReadout: chromatographic logP

Below, each entry is followed by its recorded chromatographic logP result.
- compound: "Cc1nn(C)c(C)c1C(=O)N(C1CC1)S(=O)(=O)c1ccc(O)c(O)c1 [Compound 412]"
  chromatographic logP: 3.21
- compound: "Cn1nc(C(=O)N(C2CC2)S(=O)(=O)c2ccccc2O)n(C)c1=O [Compound 608]"
  chromatographic logP: 1.97
- compound: "CC(C)c1c(C(=O)N(C2CC2)S(=O)(=O)c2cccc(O)c2)sc(=O)n1C1CC1 [Compound 617]"
  chromatographic logP: 2.01
- compound: "Cc1cc(C)c(C(=O)N(C2CC2)S(=O)(=O)c2cccc(O)c2O)c(O)n1 [Compound 650]"
  chromatographic logP: 3.57
- compound: "Cc1cc(C)c(C(=O)N(C2CC2)S(=O)(=O)c2ccc(O)c(O)c2O)c(Cl)n1 [Compound 651]"
  chromatographic logP: 4.16

A. Cc1nn(C)c(F)c1C(=O)N(C1CC1)S(=O)(=O)c1cc(O)sc1O [Compound 435]
B. Cc1nn(C)c(Oc2cccc(Cl)c2)c1C(=O)N(C1CC1)S(=O)(=O)c1ccc(O)c(C(F)(F)F)c1 [Compound 404]
C. Cc1c(C(=O)N(C2CC2)S(=O)(=O)c2ccc(C(F)(F)F)cc2)sc(=O)n1C [Compound 612]
Request: Put the compounds in ascending order of chromatographic logP. Give the labels in the order specified.
Result: C, A, B
(C: 2.01, A: 3.16, B: 4.56)

====

# testMethodNotes: logP by HPLC on reversed-phase column (C 18), EEC Directive 79/B31 Annex V.A8, methods A and B
# Type: physicochemical
# measurementSetup: reversed-phase HPLC column (C 18), HPLC reversed-phase C 18, method B: 40° C., 0.1% aqueous formic acid and acetonitrile, linear gradient 10% to 90% acetonitrile
testReadout: chromatographic logP

Example entries begin here.
- compound: "CC(F)c1nn(C)cc1C(=O)N(C1CC1)S(=O)(=O)c1ccc(Oc2ccc(Br)cc2)cc1 (centres unmarked) [Compound 122]"
  chromatographic logP: 4.1
- compound: "Cn1nc(C(F)F)c(C(=O)N(C2CC2)S(=O)(=O)c2ccccc2C(F)(F)F)c1F [Compound 106]"
  chromatographic logP: 3
- compound: "CCOC(=O)c1[nH]c(C)c(C(=O)N(C2CC2)S(=O)(=O)c2cccc(O)c2O)c1C [Compound 34]"
  chromatographic logP: 3.5
- compound: "Cn1cc(C(=O)N(C2CC2)S(=O)(=O)c2ccc(Oc3ccc(Br)cc3)cc2)c(C(F)(F)F)c1 [Compound 39]"
  chromatographic logP: 4.5
- compound: "CC(C)c1nn(C)c(F)c1C(=O)N(C1CC1)S(=O)(=O)c1ccc(O)cc1O [Compound 96]"
  chromatographic logP: 3.8
- compound: "Cn1nc(-c2ccccc2)c(C(=O)N(C2CC2)S(=O)(=O)c2cccc(O)c2O)c1F [Compound 101]"
  chromatographic logP: 3.7
- compound: "CCCOc1nn(C)cc1C(=O)N(C1CC1)S(=O)(=O)c1ccc(Oc2ccccc2O)cc1Br [Compound 291]"
  chromatographic logP: 4.2
- compound: "Cn1nc(C2CC2)c(C(=O)N(C2CC2)S(=O)(=O)c2ccc(O)c(O)c2O)c1O [Compound 223]"
  chromatographic logP: 4.2

P. CCCOc1nn(C)cc1C(=O)N(C1CC1)S(=O)(=O)c1ccc(Oc2ccc(C)cc2)cc1Br [Compound 293]
Q. CC(F)c1nn(C)cc1C(=O)N(C1CC1)S(=O)(=O)c1cccc(O)c1O (centres unmarked) [Compound 119]
Request: Hi there, can you help? I need to know whether P or Q has lower measured chromatographic logP. Refer to your chosen item by its label in the answer.
Result: Q
(Q: 2.8, P: 4.5)

====

# testMethodNotes: logP by HPLC on reversed-phase column (C 18), EEC Directive 79/B31 Annex V.A8, methods A and B
# Assay type: physicochemical
# measurementSetup: reversed-phase HPLC column (C 18), Method B: 40° C., 0.1% aqueous formic acid and acetonitrile
testReadout: chromatographic logP

- compound: "COC(=O)C1(N(C(=O)c2c(C(F)(F)F)nn(C)c2F)S(=O)(=O)c2ccc(O)c(O)c2O)CC1 [Compound 667]"
  chromatographic logP: 4.04
- compound: "Cc1nn(C)c(F)c1C(=O)N(C1(c2ccccc2)CC1)S(=O)(=O)c1cccc(O)c1O [Compound 670]"
  chromatographic logP: 4.1

====

# testMethodNotes: logP by HPLC on reversed-phase column (C 18), EEC Directive 79/B31 Annex V.A8, methods A and B
# Format: physicochemical
# measurementSetup: reversed-phase HPLC column (C 18), LogP method B: HPLC reversed-phase C 18, 40° C., 0.1% aqueous formic acid / acetonitrile, linear gradient 10% to 90% acetonitrile
testReadout: chromatographic logP

These solved cases illustrate the format of a correct answer.
- compound: "COc1nn(C)cc1C(=O)N(C1CC1)S(=O)(=O)c1cnc(O)c(Br)c1 [Compound 449]"
  testReadout: "chromatographic logP"
  readoutValue: 2
- compound: "COc1nn(C)cc1C(=O)N(C1CC1)S(=O)(=O)c1ccc(Oc2cccc(C(F)(F)F)c2F)cc1Br [Compound 471]"
  testReadout: "chromatographic logP"
  readoutValue: 3.8
- compound: "Cc1nn(C)c(O)c1S(=O)(=O)N(C(=O)c1c(C(F)(F)F)nn(C)c1F)C1CC1 [Compound 443]"
  testReadout: "chromatographic logP"
  readoutValue: 2.6
- compound: "COc1nn(C)cc1C(=O)N(C1CC1)S(=O)(=O)c1ccc(Oc2ccccc2O)cc1Br [Compound 465]"
  testReadout: "chromatographic logP"
  readoutValue: 3.5
- compound: "CCOc1nn(C)cc1C(=O)N(C1CC1)S(=O)(=O)c1ccc(OC2=CC(N(C)C)=CCC2)cc1O [Compound 532]"
  testReadout: "chromatographic logP"
  readoutValue: 3.8
- compound: "COc1nn(C)cc1C(=O)N(C1CC1)S(=O)(=O)c1ccc(Oc2ccc(C)cc2)cc1Br [Compound 467]"
  testReadout: "chromatographic logP"
  readoutValue: 3.7
- compound: "O=C(c1cccnc1O)N(C1CC1)S(=O)(=O)c1ccc(O)c(O)c1O [Compound 647]"
  testReadout: "chromatographic logP"
  readoutValue: 3.7
- compound: "CCOc1nn(C)cc1C(=O)N(C1CC1)S(=O)(=O)c1ccc(Oc2ccccc2O)c(O)c1 [Compound 537]"
  testReadout: "chromatographic logP"
  readoutValue: 4.1

A. COc1nn(C)cc1C(=O)N(C1CC1)S(=O)(=O)c1ccc(Oc2ccc(O)cc2Cl)cc1Br [Compound 477]
B. COc1nn(C)cc1C(=O)N(C1CC1)S(=O)(=O)c1ccc(F)cc1Br [Compound 459]
Request: // returns A or B , whichever has the lower chromatographic logP Respond using the label that marks the chosen record.
Result: B
(B: 2.2, A: 4.1)
